# Test system: Radical scavenging activity
# protocol: Antioxidant activity assessed as DPPH free radical scavenging activity after 30 mins
# Assay type: functional
pIC50: −log10 of the molar value.
measured_quantity: pIC50

Some compounds with recorded pIC50:
INSERT INTO measurements (compound, reported_result) VALUES
  ('CC(C)C(c1c(O)cc(/C=C/c2ccc(O)c(O)c2)oc1=O)c1c(O)cc(/C=C/c2ccc(O)c(O)c2)oc1=O', '< 3.70'),
  ('O=C1CC(c2c(O)cc(/C=C/c3ccc(O)c(O)c3)oc2=O)CN1 (stereo not drawn)', '< 3.70');

Now examine the next entry.
Consider the compound CC(c1c(O)cc(/C=C/c2ccc(O)c(O)c2)oc1=O)c1c(O)cc(/C=C/c2ccc(O)c(O)c2)oc1=O and give its measured pIC50.
< 3.70
